Protein target, amino acids: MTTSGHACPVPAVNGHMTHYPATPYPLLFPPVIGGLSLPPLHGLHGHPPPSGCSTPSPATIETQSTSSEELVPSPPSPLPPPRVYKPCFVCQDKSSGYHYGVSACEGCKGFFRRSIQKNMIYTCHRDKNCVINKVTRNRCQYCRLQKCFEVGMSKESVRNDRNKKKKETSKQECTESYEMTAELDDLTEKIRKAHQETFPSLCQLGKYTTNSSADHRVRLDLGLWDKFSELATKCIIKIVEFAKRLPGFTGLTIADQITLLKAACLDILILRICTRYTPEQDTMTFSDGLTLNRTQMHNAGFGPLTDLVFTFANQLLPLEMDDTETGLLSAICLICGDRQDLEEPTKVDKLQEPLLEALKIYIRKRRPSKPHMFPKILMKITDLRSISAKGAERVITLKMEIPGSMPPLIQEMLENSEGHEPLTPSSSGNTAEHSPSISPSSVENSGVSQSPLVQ
In this section we review reported Ki values for a set of compounds.
The reply should contain only the number, in nM.

Below, each entry is followed by its recorded Ki result.
C/C(=C\c1ccc(C(=O)O)cc1)c1ccc(O)c(C23CC4CC(CC(C4)C2)C3)c1 = 1240
O=C(O)c1ccc2cc(-c3ccc(O)c(C45CC6CC(CC(C6)C4)C5)c3)ccc2c1 [O-DEMETHYLATED ADAPALENE] = 2480

The record that follows has no Ki shown yet.
Memo: `COc1ccc(/C(C)=C/c2ccc(C(=O)O)cc2)cc1C12CC3CC(CC(C3)C1)C2` , reported Ki: 105
